Taken from patent US20260167972A1.

Test: Transmission electron microscopy of N-X-Phe-DAP/siRNA nanoparticles
Format: physicochemical
Settings: N-X-Phe-DAP/siRNA nanoparticles; 5 μM derivative, 30 nM siRNA; ± standard deviation
measured quantity: Diameter (nm), TEM

Look over these answered cases.
CCCCCCC(=O)N[C@@H](Cc1ccccc1)C(=O)NCCCN 81
NCCCNC(=O)[C@H](Cc1ccccc1)NC(=O)OCc1ccccc1 93

A. NCCCNC(=O)[C@H](Cc1cccc(F)c1)NC(=O)OCC1c2ccccc2-c2ccccc21
B. NCCCNC(=O)[C@H](Cc1ccccc1)NC(=O)CCCc1ccc2ccc3cccc4ccc1c2c34
IN: Hi there! Just curious which has the higher Diameter (nm), TEM between A and B . Write down the label attached to your selection.
OUT: A
(A: 170 nm, B: 50 nm)
